system: Ssc1 (mitochondrial heat shock protein 70 of Saccharomyces cerevisiae) (S. cerevisiae, UniProt P0CS90 24-654)
Sequence (P0CS90 24-654): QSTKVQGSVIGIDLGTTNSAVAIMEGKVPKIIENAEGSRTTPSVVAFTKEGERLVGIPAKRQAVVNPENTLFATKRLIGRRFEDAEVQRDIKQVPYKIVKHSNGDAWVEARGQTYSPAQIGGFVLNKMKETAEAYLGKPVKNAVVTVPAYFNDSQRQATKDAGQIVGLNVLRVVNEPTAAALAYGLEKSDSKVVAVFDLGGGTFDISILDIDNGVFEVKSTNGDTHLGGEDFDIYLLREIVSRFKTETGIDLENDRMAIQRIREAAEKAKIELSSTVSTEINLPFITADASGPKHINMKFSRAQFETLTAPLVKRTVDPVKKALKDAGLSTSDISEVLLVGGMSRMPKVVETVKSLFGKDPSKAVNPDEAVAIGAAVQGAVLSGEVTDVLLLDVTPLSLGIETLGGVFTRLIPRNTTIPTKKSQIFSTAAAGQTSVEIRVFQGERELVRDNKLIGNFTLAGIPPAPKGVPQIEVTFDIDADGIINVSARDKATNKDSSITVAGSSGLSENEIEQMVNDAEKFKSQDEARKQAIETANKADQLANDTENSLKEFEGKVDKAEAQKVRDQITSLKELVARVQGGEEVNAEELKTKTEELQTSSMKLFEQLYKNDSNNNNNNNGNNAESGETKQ
test.protocol: fluorescence polarisation
No end group written: not given here. fluorescein = fluorescein fluorophore covalently attached to the cysteine residue
measurement.kind: Kd

Value of measured Kd for the entry LSLPPVKLHC(fluorescein) [fluorescein-labeled Isu1 peptide (F-Isu1)] : 7.07 µM
